Measured on: T1, human IL-2 (human, UniProt P60568 21-153)
T1 construct: SPR used Reprokine human IL-2; the result sentences say only hIL-2 or labeled human IL-2, so the same molecule is used here; also called hIL-2; recombinant human IL-2
Measurement notes: yeast surface display flow cytometry, 0.1 nM hIL-2, MFI normalized to expression
Metric name: binding result

- clone 6 (17.035) scFv, yeast surface display clone (scFv) scFv: EIQLQQSGPELRRPGSSVKLSCKASGYNITDYLIHWVRHRPEHGLEWIGWIDPEDGETRYAQKFQSKATLTADTSSNAAYMQLSSLTPEDTATYFCARSLDSTYNYPFAYWGQGTLVTVSSGGGGSGGGGSGGGGSDIVMTQSPFSLAVSEGEMVTINCKSSQSLLRSGNQKNYLAWYQQKPGQSPKLLIYYASTGQSGVPDRFIGSGSGTDFTLTISDVQAEDLADYYCLQHWISPPTFGAGTKLELK: binds
- clone 5 (17.030) scFv, yeast surface display clone (scFv) scFv: EIQLQQSGPELRRPGSSVKLSCKASGYNITDYLIHWVRHRPEHGLEWIGWIDPEDGETRYAQKFQSKATLTADTSSNAAYMQLSSLTPEDTATYFCARSLDSTYDYPFAYWGQGTLVTVSSGGGGSGGGGSGGGGSDIVMTQSPFSLAVSEGEMVTINCKSSQSLLRSGNQKNYLAWYQQKPGQSPKLLIYYASTGQSGVPDRFIGSGSGTDFTLTISDVQAEDLADYYCLQHYISPPTFGAGTKLELK: binds

All figures here come from patent US20240092888A1.
